- Target Desc: recombinant DYRK1A kinase (Homo sapiens (Human))
- Method Description: DYRK1A kinase assay (Ser/Thr 18 peptide Z-lyte FRET)
- Test Conditions: DYRK1A kinase activity, Z-lyte Ser/Thr 18 peptide, 15 μM ATP; method text calls the value IC50; read-out: EC50 (the source's name)
Assay Endpoint: IC50 (nM)

1. COc1nc(N[C@@H]2CCN(C3COC3)CC2(F)F)nn2ccc(-c3cc(F)c4nccn4c3)c12 [Compound 435]
2. COc1nc(N[C@@H]2CN(C3COC3)C[C@@H]2F)nn2ccc(-c3ccc4nnn(CC(F)F)c4c3)c12 [Compound 739]
3. COc1nc(N[C@H]2C[C@@H](OC)C2)nn2ccc(-c3cnc4nccn4c3)c12 [Compound 236]
Sort ascending by IC50. The reply should contain the labels ordered as requested.
3, 2, 1
(3: 0.5 nM, 2: 4.6 nM, 1: 8.9 nM)

###

- Target Desc: recombinant DYRK1A kinase (Homo sapiens (Human), UniProt Q13627)
- Method Description: DYRK1A kinase assay (Ser/Thr 18 peptide Z-lyte FRET)
- Test Conditions: DYRK1A kinase activity, Z-lyte Ser/Thr 18 peptide, 15 μM ATP; method text calls the value IC50; read-out: EC50 (the source's name)
pIC50: −log10 of the molar value.
Assay Endpoint: pIC50

Record excerpt, results attached:
Compound	pIC50
COc1nc(N[C@H]2CCN(C3COC3)C[C@H]2F)nn2ccc(-c3ccc4ncccc4c3)c12	8.38
COc1nc(N[C@H]2CCN(C3COC3)C[C@H]2F)nn2ccc(-c3ccc4nccnc4c3)c12	8.54
COc1nc(NC2CC3(COC3)C2)nn2ccc(-c3ccc4nccnc4c3)c12	8.77
COc1nc(N[C@H]2C[C@](C)(NC(C)=O)C2)nn2ccc(-c3ccn4nccc4c3)c12	9.00
COc1nc(N[C@H]2CCN(C3(C)COC3)C[C@H]2F)nn2ccc(-c3ccc4nnn(CC(F)F)c4c3)c12	9.40

P. COc1nc(N[C@H](C)C2COC2)nn2ccc(-c3cnc4nccn4c3)c12
Q. COc1nc(N[C@H]2CCN(C(C)=O)C[C@H]2F)nn2ccc(-c3cc(F)c4nnn(CC(F)F)c4c3)c12
Thinking about recorded pIC50 values, which is higher, P or Q ? Respond with the label that goes with your answer.
P
(P: 8.92, Q: 8.55)

A. COc1nc(N[C@H]2C[C@](C)(O)C2)nn2ccc(-c3ccc4nccnc4c3)c12
B. COc1nc(NC2CC3CCC(C2)O3)nn2ccc(-c3cnc4nccn4c3)c12 (stereo not shown)
C. C[C@]1(O)CC[C@H](Nc2nc(OC3COC3)c3c(-c4ccc5nccnc5c4)ccn3n2)CC1
// smallest pIC50 at index 0, largest at the end The reply should contain the labels ordered as requested.
B, A, C
(B: 8.36, A: 8.64, C: 8.85)

###

- Target Desc: recombinant DYRK1A kinase (Homo sapiens (Human))
- Method Description: DYRK1A kinase assay (Ser/Thr 18 peptide Z-lyte FRET)
- Test Conditions: DYRK1A kinase activity, Z-lyte Ser/Thr 18 peptide, 15 μM ATP; method text calls the value IC50; read-out: EC50 (the source's name)
pIC50: −log10 of the molar value.
Assay Endpoint: pIC50

Molecule	pIC50
COc1nc(NC2CC3(CCOCC3)C2)nn2ccc(-c3ccc4nccnc4c3)c12 [Compound 1100]	8.17

1. COc1nc(N[C@H]2CC[C@](C)(O)CC2)nn2ccc(-c3cc4cnccc4[nH]3)c12 [Compound 282]
2. COc1nc(N[C@H]2CC[C@@H](OCCO)CC2)nn2ccc(-c3ccc4nccnc4c3)c12 [Compound 343]
Identify the item whose pIC50 is the smaller number: 1 or 2 Respond with the label that goes with your answer.
1
(1: 7.87, 2: 9.15)

Just for reference, patent US20240002391A1 is where these values come from.
